# Test system: E. coli IMP-1 (T2360)
# assay-overview: Checkerboard assay with imipenem, E. coli IMP-1 (T2360)
# Format: cell-based
# reported-conditions: +8 mg/L compound
parameter: Imipenem MIC (µg/mL)
# number only, unit µg/mL dropped from output

Field: example entries. Status: answers known.
                                   molecule     parameter  unit_text  assay_value
0  N=C(N)NS(=O)(=O)c1ccc(NC(=O)CCS)cc1 [HIPS5683]  Imipenem MIC      µg/mL            1
1  O=C(CCS)Nc1cccc(S(=O)(=O)O)c1 [HIPS5672]  Imipenem MIC      µg/mL            2
2      O=C(CCS)Nc1ccc(C(=O)O)cc1 [HIPS5695]  Imipenem MIC      µg/mL            2

Input line: Can you look up the measured Imipenem MIC of NC(=O)NS(=O)(=O)c1ccc(NC(=O)CCS)cc1 [HIPS5682] for me?
Output line: 2

Input line: Can you look up the measured Imipenem MIC of O=C(CCS)Nc1cccc(C(=O)O)c1 [HIPS5694, 3-(3-mercaptopropanamido)benzoic acid] for me?
Output line: 1
